System: Aspergillus flavus
Experimental details: Antifungal activity against Aspergillus flavus at 50 ug/ml after 96 hr
Type: functional
Could you please report measured inhibition at 50 µg/mL for the items listed next?
Give bare numbers, in %.

[
  {
    "Compound": "Cc1ccc(-c2nc3cc(Cl)ccc3o2)s1",
    "Measured target": "Aspergillus flavus",
    "inhibition at 50 µg/mL [%]": 24.9
  },
  {
    "Compound": "O=[N+]([O-])c1ccc(-c2nc3cc(Cl)ccc3o2)cc1",
    "Measured target": "Aspergillus flavus",
    "inhibition at 50 µg/mL [%]": 49.6
  },
  {
    "Compound": "Cc1ccc(-c2nc3ccccc3o2)s1",
    "Measured target": "Aspergillus flavus",
    "inhibition at 50 µg/mL [%]": 51.6
  }
]

# batch size: 3; output inhibition at 50 µg/mL per entry
1. Clc1ccc2oc(-c3cccnc3)nc2c1
2. Cc1ccc(-c2nc3cc(Cl)ccc3o2)cc1
3. c1csc(-c2nc3ccccc3o2)c1

26.3
43.2
63.1

Need inhibition at 50 µg/mL for each of these compounds.
1. COc1cc(-c2nc3cc(Cl)ccc3o2)ccc1O
2. C[C@@H]1C[C@@H]([C@H](O)CC2CC(=O)NC(=O)C2)C(=O)[C@@H](C)C1 [CYCLOHEXIMIDE]
3. Clc1ccc2oc(-c3cccs3)nc2c1
4. Cc1ccsc1-c1nc2cc(Cl)ccc2o1
5. Clc1ccc2oc(-c3ccccc3)nc2c1

1. 51.4
2. 63.1
3. 47.4
4. 36.8
5. 51.4
